Protocol details: Cytotoxicity against mouse L929 cells assessed as cell survival at 100 uM incubated for 48 hrs by CCK-8 assay relative to control
Format: cell-based
Condition set: read-out: Activity
So basically: is viability at 48 h, 100 µM under 20%? Then yes. Not under? Then no.

In: Take the molecule CCOc1ccc(S(=O)(=O)N2CCN(c3cccc(C)c3)CC2)cc1S(=O)(=O)N1CCN(c2cccc(C)c2)CC1 and say whether its viability at 48 h, 100 µM is less than 20%.
Out: no

In: Just wondering, is viability at 48 h, 100 µM of COc1ccc(S(=O)(=O)N2CCN(c3ccccc3F)CC2)cc1S(=O)(=O)N1CCN(c2ccccc2F)CC1 below 20%?
Out: no

In: Determine if COc1ccc(S(=O)(=O)N2CCN(Cc3ccccc3)CC2)cc1S(=O)(=O)N1CCN(Cc2ccccc2)CC1 shows viability at 48 h, 100 µM strictly lower than 20%.
Out: no

In: Does the reported viability at 48 h, 100 µM of CCOc1ccc(S(=O)(=O)N2CCN(c3ccc(C)cc3)CC2)cc1S(=O)(=O)N1CCN(c2ccc(C)cc2)CC1 stay below 20%?
Out: yes

In: Please determine if COc1ccc(S(=O)(=O)N2CCN(C)CC2)cc1S(=O)(=O)N1CCN(C)CC1 is below 20% in terms of viability at 48 h, 100 µM.
Out: no

In: Is the reported viability at 48 h, 100 µM for CCOc1ccc(S(=O)(=O)N2CCN(Cc3ccccc3)CC2)cc1S(=O)(=O)N1CCN(Cc2ccccc2)CC1 strictly below 20%?
Out: no

In: Please determine if COc1ccc(S(=O)(=O)N2CCN(c3cccc(C)c3)CC2)cc1S(=O)(=O)N1CCN(c2cccc(C)c2)CC1 is below 20% in terms of viability at 48 h, 100 µM.
Out: no

In: Does this molecule meet the criterion viability at 48 h, 100 µM < 20%? CCOc1ccc(S(=O)(=O)N2CCN(c3ccccc3F)CC2)cc1S(=O)(=O)N1CCN(c2ccccc2F)CC1
Out: yes

====

Protocol details: Cytotoxicity against mouse L929 cells assessed as cell survival at 10 uM incubated for 48 hrs by CCK-8 assay relative to control
Type: cell-based
Condition set: read-out: Activity
Measurement type: viability at 48 h, 10 µM (%)
Please reply with the bare figure in % and do not write the unit itself.

In: Could you share which viability at 48 h, 10 µM value was measured for COc1ccc(S(=O)(=O)N2CCN(C)CC2)cc1S(=O)(=O)N1CCN(C)CC1 ?
Out: 77.8

In: Suppose we examine the compound COc1ccc(S(=O)(=O)N2CCN(c3cccc(C)c3)CC2)cc1S(=O)(=O)N1CCN(c2cccc(C)c2)CC1 ; what viability at 48 h, 10 µM value has been reported?
Out: 85.2

In: Requested field: viability at 48 h, 10 µM. Item: COc1ccc(S(=O)(=O)N2CCN(c3ccccc3F)CC2)cc1S(=O)(=O)N1CCN(c2ccccc2F)CC1
Out: 77.8

In: Fill blank: measured viability at 48 h, 10 µM of the compound COc1ccc(S(=O)(=O)N2CCN(Cc3ccccc3)CC2)cc1S(=O)(=O)N1CCN(Cc2ccccc2)CC1 is ____.
Out: 55.6

In: Look up viability at 48 h, 10 µM: CCOc1ccc(S(=O)(=O)N2CCN(Cc3ccccc3)CC2)cc1S(=O)(=O)N1CCN(Cc2ccccc2)CC1
Out: 55.6

In: Return reported viability at 48 h, 10 µM; argument: CCOc1ccc(S(=O)(=O)N2CCN(c3cccc(C)c3)CC2)cc1S(=O)(=O)N1CCN(c2cccc(C)c2)CC1
Out: 56.6

In: What measured viability at 48 h, 10 µM goes with CCOc1ccc(S(=O)(=O)N2CCN(c3ccccc3F)CC2)cc1S(=O)(=O)N1CCN(c2ccccc2F)CC1 ?
Out: 70.4

In: Item under review: CCOc1ccc(S(=O)(=O)N2CCN(c3ccc(C)cc3)CC2)cc1S(=O)(=O)N1CCN(c2ccc(C)cc2)CC1 . Reported viability at 48 h, 10 µM?
Out: 51.8
